FYI, the data here is from ChEMBL document CHEMBL4052581.

- experimental_system: Bcl-2-related protein A1 (Homo sapiens)
- Sequence (Q16548 whole entry): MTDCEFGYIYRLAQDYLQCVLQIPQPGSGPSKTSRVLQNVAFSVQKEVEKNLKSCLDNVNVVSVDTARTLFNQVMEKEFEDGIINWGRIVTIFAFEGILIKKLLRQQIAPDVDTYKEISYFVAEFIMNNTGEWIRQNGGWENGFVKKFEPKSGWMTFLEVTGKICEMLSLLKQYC
pKi: −log10 of the molar value.
metric: pKi

Prompt: Input CN(C)CC[C@H](CSc1ccccc1)Nc1ccc(S(=O)(=O)NC(=O)c2ccc(N3CCN(Cc4ccccc4-c4ccc(Cl)cc4)CC3)cc2)cc1[N+](=O)[O-] [ABT 737] , output reported pKi.
Completion: < 4.70

###

- experimental_system: Induced myeloid leukemia cell differentiation protein Mcl-1 (Homo sapiens, UniProt Q07820)
- Sequence (Q07820 whole entry): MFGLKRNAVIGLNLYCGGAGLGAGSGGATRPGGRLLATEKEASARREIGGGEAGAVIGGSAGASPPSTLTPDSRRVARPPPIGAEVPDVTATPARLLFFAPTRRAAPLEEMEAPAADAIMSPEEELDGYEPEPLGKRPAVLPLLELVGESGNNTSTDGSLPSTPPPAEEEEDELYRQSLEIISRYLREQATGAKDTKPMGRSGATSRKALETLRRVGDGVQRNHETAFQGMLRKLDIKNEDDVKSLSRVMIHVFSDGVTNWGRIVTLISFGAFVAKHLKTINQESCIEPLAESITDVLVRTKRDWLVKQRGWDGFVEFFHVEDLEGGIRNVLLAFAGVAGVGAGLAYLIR
- protocol: Inhibition of Bim BH3 peptide binding to GST-tagged human Mcl-1 after 3 hrs by Western blotting-based GST pull-down assay
metric: pIC50
// field semantics: pIC50 = negative decimal log of concentration (mol/L)

Prompt: Input "CC(C)Cc1cc(-c2ccc(-c3ccc(CCC(=O)O)cc3CC(C)C)cc2Cc2ccccc2)ccc1OCC(=O)O" , output reported pIC50.
Completion: 5.31
